Cited source: the supplement of paper PMC12455559

Assay: PET hydrolysis, aromatic products released after 48 h (umol product/mg enzyme); higher = more PET depolymerization activity
Conditions: substrate: cryPow; 60 °C; pH 6.5
measured.attribute: PET hydrolysis
In your answer, state the number alone without any accompanying words.

For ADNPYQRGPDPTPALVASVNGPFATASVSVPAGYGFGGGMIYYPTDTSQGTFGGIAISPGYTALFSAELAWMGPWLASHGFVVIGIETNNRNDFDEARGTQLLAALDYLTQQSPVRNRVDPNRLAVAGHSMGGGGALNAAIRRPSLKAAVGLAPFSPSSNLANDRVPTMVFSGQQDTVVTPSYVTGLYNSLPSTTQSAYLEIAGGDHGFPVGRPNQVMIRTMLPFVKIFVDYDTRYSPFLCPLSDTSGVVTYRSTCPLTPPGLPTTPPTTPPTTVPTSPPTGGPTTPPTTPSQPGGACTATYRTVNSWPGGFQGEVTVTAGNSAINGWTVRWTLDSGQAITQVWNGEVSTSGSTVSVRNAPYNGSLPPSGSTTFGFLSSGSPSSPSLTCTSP [DP059] , what is its reported PET hydrolysis? 47
